Reference for the values: PubChem BioAssay (NCATS)

Tested on: CRL-7250
assay-protocol: qHTS assay to identify novel small-molecules to repurpose for Merkel cell carcinoma treatment (AID 1296009); also: nearly all actives have a fitted effect of over 60% in size
conditions: MCC and control cell lines, CellTiter-Glo viability, 72 h; series mostly up to 92 µM
Results filed as inconclusive are left out. Active and inactive are the calls of the source. Calls follow the shape of the dose curve; as a rule, active = well fitted inhibition curve with a large enough effect; inconclusive = small, poorly fitted or top-dose-only effect; inactive = flat fitted curve, though single readings scatter.
parameter: outcome

Sample answers from the record:
compound=O=C(O)Cc1cc(I)c(Oc2ccc(O)c(I)c2)c(I)c1 target_or_test_system=CRL-7250 recorded_value=inactive
compound="CC(C)c1cc2c(c(O)c1O[C@@H]1O[C@H](CO)[C@@H](O)[C@H](O)[C@H]1O)CC1(O)CCC(O)C(C)(C)C1CC2 (stereo partly drawn)" target_or_test_system=CRL-7250 recorded_value=inactive
compound=CNC[C@@H](O)[C@@H](O)[C@H](O)[C@H](O)CO target_or_test_system=CRL-7250 recorded_value=inactive
compound="CC(=O)OC(C)(C)/C=C/C(=O)[C@](C)(O)[C@H]1C(O)C[C@@]2(C)[C@@H]3CC=C4[C@@H](C=C(O[C@@H]5O[C@H](CO)[C@@H](O)[C@H](O)[C@H]5O)C(=O)C4(C)C)[C@]3(C)C(=O)C[C@]12C (stereo partly drawn)" target_or_test_system=CRL-7250 recorded_value=inactive
compound="COc1c2c(c(C)c3c1C(=O)OC3)OC1(C)CC(O)C(C(C)(C)O)C(C)(CCC(=O)O)C1C2 (stereo not drawn)" target_or_test_system=CRL-7250 recorded_value=inactive

Recorded outcome of C=C(COC(=O)CC(C)C)C1Cc2cc(C(C)=O)ccc2O1 (stereo not drawn) , please.
inactive

Recorded outcome of O=C(Cc1ccc(Cl)cc1)Nc1cnccc1C(=O)O , please.
inactive

----------
System: CP315
assay-protocol: qHTS profiling for inhibitors of Plasmodium falciparum proliferation (AID 504749); also: nearly all actives have a fitted effect of over 60% in size
conditions: P. falciparum in erythrocytes, SYBR Green DNA, 72 h; series mostly up to 28.7 µM
Inconclusive results are not listed. Active and inactive are the calls of the source. Calls come from the whole dose curve; as a rule, active = well fitted inhibition curve with a large enough effect; inconclusive = small, poorly fitted or top-dose-only effect; inactive = flat fitted curve, though single readings scatter.
Choose one outcome from this list and give only that: active, inactive

molecule=CCN(CC)CCO[C@H]1CC[C@@]2(C)C(=CC[C@@H]3[C@H]2CC[C@]2(C)C(=O)CC[C@H]32)C1 target_or_test_system=CP315 group_label=inactive
molecule=CCCCCCCCCC[N+](C)(C)CCCCCCCCCC target_or_test_system=CP315 group_label=active
molecule="CC(C)[C@@]1(NC(=O)[C@H]2CC3c4cccc5[nH]cc(c45)C[C@H]3N(C)C2)O[C@@]2(O)C3CCCN3C(=O)[C@@H](Cc3ccccc3)N2C1=O (some centres undefined)" target_or_test_system=CP315 group_label=active

What did this assay record as the result for Cc1cccc([C@H](C)c2cnc[nH]2)c1C ?
inactive

----------
assay-protocol: qHTS for Inhibitors of the Functional Ribonucleoprotein Complex (vRNP) of Lassa (LASV) Arenavirus: Viability assay - alamar blue signal for LASV Primary Screen (AID 1347083); also: nearly all actives have a fitted effect of over 80% in size
conditions: cell viability, alamar blue fluorescence (LASV minigenome counter-screen); series mostly up to 57.5 µM
Records with an inconclusive call do not appear. Calls of active or inactive are those of the source. The call rests on the fitted dose curve; tested in HEK293 reporter line.
Choose one outcome from this list and give only that: T (active), F (inactive)

What did this assay record as the result for NCCCCN=C(N)N ?
F

What did this assay record as the result for CC1(C)C=Cc2c(c3c(c4c(=O)c(-c5ccc(O)cc5)coc24)OC(C)(C)CC3)O1 ?
F

What did this assay record as the result for C=CC1CN2CCC1CC2C(O)c1ccnc2ccccc12 (stereo not drawn) ?
F

What did this assay record as the result for C[C@@H]1CC2OC(=O)[C@@]3(C)C(=O)CC[C@@](C)(C23)[C@@]1(O)CCc1ccoc1 (stereo partly drawn) ?
F

What did this assay record as the result for CN(C)c1ccc(C(=O)NCCCCCCC(=O)NO)cc1 ?
T
